Property: log10(LC50); scope: individual compounds
Tested on: L1 wild-type C. elegans
procedure.text: whole plant or invertebrate
assay.setup: Caenorhabditis elegans, 15 h, read-out: C. elegans KCN Survival Assay LC50
Short version: log10 scale, LC50, µM.

Worked examples, 6 compounds total:
INSERT INTO results (compound, recorded_measurement) VALUES
  ('CC(C)(C)c1ccc(CCOc2ncnc3ccccc23)cc1 [Fenazaquin, reference compound]', -0.30),
  ('Fc1ccc(C(c2ccc(F)cc2)N2CCN(C/C=C/c3ccccc3)CC2)cc1 [Flunarizine]', 1.34),
  ('COc1cc2c(cc1OC)C(/C=C/c1ccc(N(C)C)cc1)=NCC2 [NPD6303]', 1.51),
  ('COc1cc2c(cc1OC)C(c1ccc(-c3ccc(Cl)c(Cl)c3)o1)=NCC2 [NPD3577]', 1.20),
  ('COc1cc2c(cc1OC)C(C(C)c1ccc(CC(C)C)cc1)=NCC2 (stereo not shown) [NPD10504]', 1.19),
  ('CC(C)Cc1ccc(C(C)c2nc3ccccc3n2C)cc1 (stereo not shown) [NPD8790]', 1.16);

What does the record list as log10(LC50) for Cc1ccccc1OCCCCn1cnc2ccccc21 [Compound 7732524] ?
0.81

Further, for CCCC/C=C\C/C=C\CCCCCCCCc1cccc(O)c1C(=O)O [6-heptadeca-9Z,12Z-dienyl salicylic acid] ?
0.60

Next: C=C(C)[C@H]1Cc2c(ccc3c2O[C@@H]2COc4cc(OC)c(OC)cc4[C@@H]2C3=O)O1 [Rotenone, reference compound]
-0.10

Can you handle Cc1cc(O)c2c(c1)O[C@@]1(C)CC[C@H]3C(C)(C)CCC[C@]34CO[C@@H]2[C@H]41 [Siccanin] next?
0.80
